target.or.test.system: mouse TRPM3α2 (mTRPM3) ion channel (Mus musculus (Mouse), UniProt J9SQF3)
Sequence (J9SQF3 other isoform, or with tags, fused parts or gaps): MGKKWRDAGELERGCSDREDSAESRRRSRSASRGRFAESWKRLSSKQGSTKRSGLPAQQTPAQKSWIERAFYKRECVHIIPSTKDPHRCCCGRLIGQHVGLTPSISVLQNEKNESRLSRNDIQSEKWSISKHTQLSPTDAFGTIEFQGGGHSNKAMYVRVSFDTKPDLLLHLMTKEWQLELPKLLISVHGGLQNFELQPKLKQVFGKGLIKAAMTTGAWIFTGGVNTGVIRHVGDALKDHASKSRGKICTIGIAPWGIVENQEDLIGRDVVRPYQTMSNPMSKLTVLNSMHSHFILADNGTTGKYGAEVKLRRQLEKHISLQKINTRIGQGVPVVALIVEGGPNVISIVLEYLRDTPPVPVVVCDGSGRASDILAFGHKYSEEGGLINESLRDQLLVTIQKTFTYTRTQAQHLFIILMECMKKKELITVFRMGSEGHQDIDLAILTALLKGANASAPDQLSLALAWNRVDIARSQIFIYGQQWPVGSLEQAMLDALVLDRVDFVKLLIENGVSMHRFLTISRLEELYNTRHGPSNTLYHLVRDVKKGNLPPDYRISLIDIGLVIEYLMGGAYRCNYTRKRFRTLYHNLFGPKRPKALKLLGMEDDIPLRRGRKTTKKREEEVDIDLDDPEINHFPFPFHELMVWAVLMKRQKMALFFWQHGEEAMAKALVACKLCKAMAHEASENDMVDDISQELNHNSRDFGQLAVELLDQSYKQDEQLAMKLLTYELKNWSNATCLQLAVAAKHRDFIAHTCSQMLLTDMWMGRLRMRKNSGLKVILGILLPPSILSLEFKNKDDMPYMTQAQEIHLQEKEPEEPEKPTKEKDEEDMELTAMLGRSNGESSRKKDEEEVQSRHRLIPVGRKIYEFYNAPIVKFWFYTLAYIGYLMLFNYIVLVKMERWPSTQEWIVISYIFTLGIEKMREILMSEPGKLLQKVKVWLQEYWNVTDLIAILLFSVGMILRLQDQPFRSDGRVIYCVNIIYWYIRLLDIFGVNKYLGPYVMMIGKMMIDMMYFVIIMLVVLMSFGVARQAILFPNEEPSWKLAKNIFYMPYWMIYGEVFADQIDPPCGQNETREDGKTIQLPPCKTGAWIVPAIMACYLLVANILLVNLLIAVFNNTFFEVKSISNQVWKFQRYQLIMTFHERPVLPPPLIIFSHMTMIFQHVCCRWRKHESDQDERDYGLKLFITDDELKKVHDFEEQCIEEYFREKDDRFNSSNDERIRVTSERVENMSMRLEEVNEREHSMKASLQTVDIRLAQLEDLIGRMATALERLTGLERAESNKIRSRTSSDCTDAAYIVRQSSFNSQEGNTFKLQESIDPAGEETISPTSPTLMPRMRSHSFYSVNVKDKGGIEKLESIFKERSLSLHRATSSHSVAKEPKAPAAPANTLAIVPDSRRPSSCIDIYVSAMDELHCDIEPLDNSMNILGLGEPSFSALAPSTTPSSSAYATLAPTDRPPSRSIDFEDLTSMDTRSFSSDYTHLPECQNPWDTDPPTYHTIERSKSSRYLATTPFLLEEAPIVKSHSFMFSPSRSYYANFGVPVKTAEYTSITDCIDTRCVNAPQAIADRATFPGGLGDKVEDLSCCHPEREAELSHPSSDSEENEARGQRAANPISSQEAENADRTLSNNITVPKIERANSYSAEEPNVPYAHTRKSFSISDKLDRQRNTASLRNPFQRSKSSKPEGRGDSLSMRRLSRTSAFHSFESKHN
test.name: TRPM3 ion channel driven Ca2+ uptake, Fluo-4 AM assay, mTRPM3alpha2 overexpressing flip-in HEK293 cells stimulated with pregnenolone sulfate
Assay type: cell-based
measurement.setup: PS (50 μM) stimulated, cpds. 400-499
test.readout: IC50

// known answers, use as guide
- compound: "Cc1ncsc1COc1ccc2oc(C)c(C(=O)NC(CO)CN(C)C)c2c1 (single isomer, unassigned) [413-En 1]"
  IC50: "< 1000 nM"
- compound: "Cc1ncc(COc2ccc3oc(C)c(C(=O)NC(COC(F)F)C(N)=O)c3c2)s1 (single isomer, unassigned) [447-En 1]"
  IC50: "< 1000 nM"
- compound: "Cc1oc2ccc(OCc3ccccn3)cc2c1C(=O)NC(C)(CO)CO [compound 428]"
  IC50: "< 1000 nM"
- compound: "Cc1oc2ccc(OCc3cccnc3C(F)(F)F)cc2c1C(=O)NC(C)(CO)CO [compound 424]"
  IC50: "< 1000 nM"
- compound: "Cc1oc2ccc(OCc3nccn3C)cc2c1C(=O)NC(C)(C)CO [compound 481]"
  IC50: "< 1000 nM"

Entry Cc1ncc(COc2ccc3oc(C)c(C(=O)NC4(C(N)=O)CCC4)c3c2)s1 [compound 471] under mouse TRPM3α2 (mTRPM3) ion channel (Mus musculus (Mouse), UniProt J9SQF3) had IC50 of < 1000 nM

Entry Cc1oc2ccc(OCc3ccncn3)cc2c1C(=O)NC(C)(CO)CO [compound 429] under mouse TRPM3α2 (mTRPM3) ion channel (Mus musculus (Mouse), UniProt J9SQF3) had IC50 of < 1000 nM

Entry Cc1oc2ccc(OCc3ccccn3)cc2c1C(=O)NC1(CO)CCC1 [compound 415] under mouse TRPM3α2 (mTRPM3) ion channel (Mus musculus (Mouse), UniProt J9SQF3) had IC50 of < 1000 nM
